The reported measurements were obtained from patent US10098878B2.

- TESTED TARGET: HIF-2α HIS TAG-PASB Domain (Homo sapiens)
- Construct: 100 nM HIF-2α HIS TAG-PASB Domain
- Sequence (Q99814 240-350 limits assumed): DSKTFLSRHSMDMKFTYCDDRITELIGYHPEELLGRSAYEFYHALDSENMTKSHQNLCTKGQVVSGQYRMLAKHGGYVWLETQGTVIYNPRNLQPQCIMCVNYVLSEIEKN
- TEST METHOD NOTES: HIF-2α Scintillation Proximity Assay (SPA)
- Assay type: binding
- STUDY CONDITIONS: 150 nM Compound 211 probe, 100 nM HIF-2α HIS TAG-PASB Domain; read-out: SPA IC50
- Procedure: The total assay volume was about 100 μL in the following configuration: 2 μL compound in 100% DMSO, 88 μL buffer with protein and probe and 10 μL of SPA beads. […] The percent inhibition was determined and IC50 values were calculated using the Dotmatics system based on the following equation: % inhibition=[(high control−sample)/(high control−low control)]×100.
pIC50: −log10 of the molar value.
READOUT KIND: pIC50

Past entries and their recorded results:
INSERT INTO results (compound, readout_kind, experimental_value) VALUES
  ('O=S(=O)(c1ccc(Oc2cc(Cl)c[n+]([O-])c2)c2c1[C@H](O)C(F)(F)C2)C(F)(F)F', 'pIC50', 7.18),
  ('C#Cc1c(Oc2cc(F)cc(C#N)c2)ccc2c1C(O)C(F)(F)S2(=O)=O (centres unmarked)', 'pIC50', 7.23),
  ('NC1c2cc(Oc3cc(F)cc(Cl)c3)ccc2S(=O)(=O)C1(F)F (centres unmarked)', 'pIC50', 6.70);

A. O=S1(=O)c2ccc(Oc3cccc4sccc34)c(C(F)F)c2C(O)C1(F)F (centres unmarked)
B. N#Cc1cc(F)cc(Oc2ccc3c(c2F)C(O)C(F)(F)S3(=O)=O)c1 (centres unmarked)
-- ask A or B : whose pIC50 is greater? // output: label of the selected item
-- reply A

I. N#Cc1c(Oc2cccc(F)c2)ccc2c1[C@@H](O)CS2(=O)=O
II. N#Cc1cc(Oc2ccc(S(=O)(=O)C(F)(F)F)c3c2CC(F)(F)[C@H]3O)c[n+]([O-])c1
-- ask I or II : whose pIC50 is greater? // output: label of the selected item
-- reply II

----------
- System: 786-O-Hif-Luc cells
- TEST METHOD NOTES: Luciferase Assay
- Type: cell-based
- STUDY CONDITIONS: 24 h, 786-O-Hif-Luc cells; about 24 hours; read-out: Luciferase EC50
READOUT KIND: EC50 (nM)

INSERT INTO results (compound, uom, experimental_value) VALUES
  ('CS(=O)(=NC#N)c1ccc(Oc2cncc(C#N)c2)c2c1[C@H](O)C(F)(F)[C@@H]2F (single isomer, unassigned) [Compound 83]', 'nM', 83);

a. N#Cc1cccc(Oc2ccc3c(c2C(F)F)[C@@H](O)C(F)(F)S3(=O)=O)c1 [Compound 199]
b. NS(=O)(=O)c1ccc(Oc2cncc(F)c2)c2c1[C@H](O)C(F)(F)[C@@H]2F [Compound 105]
c. N#CN=S1(=O)c2ccc(Oc3cc(F)cc(F)c3)c(Cl)c2[C@@H](O)C1(F)F (stereo partly shown) [Compound 176]
-- ask // smallest EC50 at index 0, largest at the end // format: requested-order list of labels
-- reply a, b, c
(a: 33 nM, b: 114 nM, c: 2160 nM)

P. CS(=O)(=O)c1ccc(Oc2cc(F)cc(C#N)c2)c2c1[C@H](O)C(F)(F)[C@@H]2O [Compound 76]
Q. O=S(=O)(c1ccc(Oc2cc(Cl)c[n+]([O-])c2)c2c1[C@H](O)C(F)(F)C2)C(F)(F)F [Compound 28]
R. CS(=O)(=O)c1ccc(Oc2cc(F)cc(Br)c2)c2c1[C@H](O)C(F)(F)C2 [Compound 68]
S. C[C@@]1(F)Cc2c(Oc3cc(F)cc(C#N)c3)ccc(S(C)(=O)=O)c2[C@@H]1O [Compound 64]
-- ask // smallest EC50 at index 0, largest at the end // format: requested-order list of labels
-- reply R, Q, P, S
(R: 22 nM, Q: 173 nM, P: 631 nM, S: 2830 nM)

1. C#Cc1c(Oc2cc(F)cc(C#N)c2)ccc2c1C(O)C(F)(F)S2(=O)=O (stereo not shown) [Compound 173]
2. O=S1(=O)c2ccc(Oc3cccc4cn[nH]c34)c(C(F)F)c2C(O)C1(F)F (stereo not shown) [Compound 205]
-- ask // pick min by EC50: 1 , 2 // output: label of the selected item
-- reply 1
(1: 190 nM, 2: 6900 nM)
